I'd be grateful if you could share measured viability, T/C for these entries.
Tested on: SW 1271 complex spheroids, viability
experimental.details: Anticancer human tumor SW 1271 cell line growth inhibition [LSD1];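 note: spheroids exposed to agents for 7 days before luminescence read; 100% = DMSO vehicle control viability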
condition.parameters: second compound 3.16 µM; first compound 0.0949 µM; hits give low values
One number for each entry, in %.

{"columns": ["molecule", "viability, T/C [%]"],
 "data": [
  ["NS(=O)(=O)OCC1CC(n2ccc3c(NC4CCc5ccccc54)ncnc32)CC1O (stereo unspecified) + NC1CCC(NC2CC2c2ccccc2)CC1", 93.8],
  ["O=C(C=Cc1cccc(S(=O)(=O)Nc2ccccc2)c1)NO + NC1CCC(NC2CC2c2ccccc2)CC1", 56.1]
]}

State recorded viability, T/C for all listed molecules.
1. CCc1c2c(nc3ccc(O)cc13)-c1cc3c(c(=O)n1C2)COC(=O)[C@]3(O)CC + NC1CC1c1ccc(-c2cccc(O)c2)cc1
2. CCc1c2c(nc3ccc(O)cc13)-c1cc3c(c(=O)n1C2)COC(=O)[C@]3(O)CC + NC1CCC(NC2CC2c2ccccc2)CC1
3. Nc1ncn(C2CC(O)C(CO)S2)c(=O)n1 (stereo unspecified) + NC1CCC(NC2CC2c2ccccc2)CC1
4. Nc1ccccc1NC(=O)c1ccc(CNC(=O)OCc2cccnc2)cc1 + NC1CC1c1ccc(-c2cccc(O)c2)cc1
5. Nc1ccccc1NC(=O)c1ccc(CNC(=O)OCc2cccnc2)cc1 + NC1CCC(NC2CC2c2ccccc2)CC1
6. NS(=O)(=O)OCC1CC(n2ccc3c(NC4CCc5ccccc54)ncnc32)CC1O (stereo unspecified) + NC1CC1c1ccc(-c2cccc(O)c2)cc1

[reply]
1. 5.19
2. 5.59
3. 77.7
4. 40.5
5. 62.3
6. 99.9

State recorded viability, T/C for all listed molecules.
1. Nc1ccn(C2OC(CO)C(O)C2(F)F)c(=O)n1 (stereo unspecified) + NC1CC1c1ccc(-c2cccc(O)c2)cc1
2. CCN(c1cc(-c2ccc(CN3CCOCC3)cc2)cc(C(=O)NCc2c(C)cc(C)[nH]c2=O)c1C)C1CCOCC1 + NC1CCC(NC2CC2c2ccccc2)CC1
3. COc1cc(C2c3cc4c(cc3C(OC3OC5COC(C)OC5C(O)C3O)C3COC(=O)C23)OCO4)cc(OC)c1O (stereo unspecified) + NC1CCC(NC2CC2c2ccccc2)CC1
4. Nc1ccn(C2OC(CO)C(O)C2(F)F)c(=O)n1 (stereo unspecified) + NC1CCC(NC2CC2c2ccccc2)CC1
5. O=C(C=Cc1cccc(S(=O)(=O)Nc2ccccc2)c1)NO + NC1CC1c1ccc(-c2cccc(O)c2)cc1
6. Nc1ncn(C2CC(O)C(CO)S2)c(=O)n1 (stereo unspecified) + NC1CC1c1ccc(-c2cccc(O)c2)cc1
7. COc1cc(C2c3cc4c(cc3C(OC3OC5COC(C)OC5C(O)C3O)C3COC(=O)C23)OCO4)cc(OC)c1O (stereo unspecified) + NC1CC1c1ccc(-c2cccc(O)c2)cc1
8. CCN(c1cc(-c2ccc(CN3CCOCC3)cc2)cc(C(=O)NCc2c(C)cc(C)[nH]c2=O)c1C)C1CCOCC1 + NC1CC1c1ccc(-c2cccc(O)c2)cc1

[reply]
1. 56.2
2. 104
3. 71.8
4. 60.5
5. 45.6
6. 60.8
7. 61.3
8. 78.1
